Test system: P. falciparum 3D7 strain expressing the cytosolic yeast DHODH (3D7-yDHODH)
MEASUREMENT_PROTOCOL: Confirmation assay against transgenic parasite 3D7-yDHODH
Format: cell-based, Plasmodium falciparum
CONDITION_LABEL: 72 h; relative parasite growth at 10 µM compound; read-out: Growth at 10 µM (%) Pf3D7-yDHODH
READOUT: activity at 10 µM (%)
API: value field is a number in %; no unit string.

Known results for compounds:
CHEMICAL_STRUCTURE: N=C1Sc2cc(-c3cccc([N+](=O)[O-])c3)ccc2C2=NCCCN12
READOUT: activity at 10 µM
UOM: %
OBSERVED_RESULT: 103
--
CHEMICAL_STRUCTURE: N=C1Sc2cc(-c3cc4ccccc4o3)ccc2C2=NCCCN12
READOUT: activity at 10 µM
UOM: %
OBSERVED_RESULT: 36.2
--
CHEMICAL_STRUCTURE: COC(=O)c1ccc(-c2ccc3c(c2)SC(=N)N2CCCN=C32)cc1
READOUT: activity at 10 µM
UOM: %
OBSERVED_RESULT: 70.5
--
CHEMICAL_STRUCTURE: N=C1Sc2cc(-c3ccc4c(C(=O)OC(F)(F)F)c[nH]c4c3)ccc2C2=NCCCN12
READOUT: activity at 10 µM
UOM: %
OBSERVED_RESULT: 104
--
CHEMICAL_STRUCTURE: N=C1Sc2cc(-c3ccc4cnccc4c3)ccc2C2=NCCCN12
READOUT: activity at 10 µM
UOM: %
OBSERVED_RESULT: 26

Exercise: Looking for the measured activity at 10 µM of "c1cc2c(cc1-c1ccc3c(c1)SN1CCCN=C31)OCO2" , can you help?
Key: 0.11

Exercise: Looking for the measured activity at 10 µM of "C#CCOCc1ccc(C(=O)c2ccc(-c3ccc4c(c3)SC(=N)N3CCCN=C43)cc2)cc1" , can you help?
Key: 0.45

Exercise: Looking for the measured activity at 10 µM of "N#Cc1ccc(-c2ccc3c(c2)SC(=N)N2CCCN=C32)cc1" , can you help?
Key: 105

Exercise: Looking for the measured activity at 10 µM of "N=C1Sc2cc(-c3ccc(C(F)(F)F)cc3)ccc2C2=NCCCN12" , can you help?
Key: -0.38

Exercise: Looking for the measured activity at 10 µM of "O=[N+]([O-])c1ccccc1-c1ccc2c(c1)SN1CCCN=C21" , can you help?
Key: 31.1
